Experiment: CCTE_Mundy_HCI_iCellGABA_NOG_NeuriteLength: CCTE's Neurite Outgrowth Assay in iCellGABA cells for Neurite Length, Mundy Lab
Records with an inconclusive call do not appear. Active and inactive are the calls of the source. Rule for the calls: active = hit-call score of the fitted dose curve at least 0.9, where 1 is the maximum; inconclusive = response in the unintended direction; inactive = score below 0.9.
Classes used: T = active, F = inactive

INSERT INTO assay_data (molecule, label_class) VALUES
  ('COP(=S)(OC)SCN1C(=O)c2ccccc2C1=O', 'T'),
  ('CCCCSP(=O)(SCCCC)SCCCC', 'F'),
  ('CCOP(=S)(OCC)SCSCC', 'F'),
  ('COP(=O)(OC)O/C(C)=C/C(=O)N(C)C', 'F'),
  ('CCOC(=O)CC(SP(=O)(OC)OC)C(=O)OCC (configuration not stated)', 'F'),
  ('COP(=O)(OC)O/C(=C\Cl)c1cc(Cl)c(Cl)cc1Cl', 'T'),
  ('CCOP(=S)(OCC)SCSC(C)(C)C', 'F'),
  ('CCOP(=S)(OCC)Oc1nc(Cl)c(Cl)cc1Cl', 'T'),
  ('CCOC(=O)CC(SP(=S)(OC)OC)C(=O)OCC (configuration not stated)', 'T'),
  ('COP(=O)(OC)OC=C(Cl)Cl', 'F'),
  ('CCOP(=O)(SC(C)CC)N1CCSC1=O (configuration not stated)', 'F'),
  ('CCOP(=S)(OCC)OC(Cl)C(Cl)(Cl)Cl (configuration not stated)', 'T');

Source of measurements: PubChem BioAssay AID2284382
